Origin of the recorded values: patent US6369066B1

Tested on: HIV-1 HXB2D-65 K→R (ddC resistance mutation)
test-summary: IC50 in CBMCs with constructed mutated virus HXB2D-65
Type: cell-based
condition-info: Human immunodeficiency virus 1, read-out: IC50 HXB2D-65 K→R
measurement-label: pIC50
One number for each entry, as −log10 of the molar value.

Quick one: give me pIC50 for each item below, same order please.
1. Nc1ccn([C@@H]2CO[C@H](CO)S2)c(=O)n1
2. Nc1ccn([C@H]2CO[C@@H](CO)S2)c(=O)n1
3. Cc1cn([C@H]2C[C@H](N=[N+]=[N-])[C@@H](CO)O2)c(=O)[nH]c1=O [AZT, 3′-azido-3′-deoxythymidine, reference compound]
4. Nc1nc(=O)n([C@@H]2CO[C@H](CO)S2)cc1F

1. 5.46
2. 5.60
3. 9.00
4. 5.19

Suppose we examine the compound Nc1nc(=O)n([C@H]2CO[C@@H](CO)S2)cc1F ; what pIC50 value has been reported?
4.94

----------
System: CBMCs
test-summary: Cell culture inhibitory dose (CCID50) in CBMCs
Format: cell-based
condition-info: cell counting, trypan blue exclusion, 7 days post drug treatment
Assignment: determine reported CCID50 CBMCs for the given compounds.

Worked cases, CCID50 CBMCs given:
{"columns": ["query-smiles", "CCID50 CBMCs"],
 "data": [
  ["Nc1nc(=O)n([C@@H]2CO[C@H](CO)S2)cc1F", ">500 µM"],
  ["Nc1nc(=O)n([C@H]2CO[C@@H](CO)S2)cc1F", ">500 µM"]
]}

Write down the reported CCID50 CBMCs of Nc1ccn([C@H]2CO[C@@H](CO)S2)c(=O)n1 , test system: CBMCs.
>500 µM

----------
Tested on: U937
test-summary: Cell culture inhibitory dose (CCID50) in U937
Type: cell-based
condition-info: cell counting, trypan blue exclusion, 7 days post drug treatment
measurement-label: CCID50 U937

Worked cases, CCID50 U937 given:
{"columns": ["query-smiles", "measurement"],
 "data": [
  ["Nc1nc(=O)n([C@H]2CO[C@@H](CO)S2)cc1F", ">500 µM"],
  ["Nc1ccn([C@H]2CO[C@@H](CO)S2)c(=O)n1", ">500 µM"]
]}

Suppose we examine the compound Nc1nc(=O)n([C@@H]2CO[C@H](CO)S2)cc1F ; what CCID50 U937 value has been reported?
>500 µM

----------
System: CEM
test-summary: Cell culture inhibitory dose (CCID50) in CEM
Format: cell-based
condition-info: cell counting, trypan blue exclusion, 7 days post drug treatment
measurement-label: CCID50 CEM

Worked cases, CCID50 CEM given:
{"columns": ["query-smiles", "measurement"],
 "data": [
  ["Nc1nc(=O)n([C@@H]2CO[C@H](CO)S2)cc1F", ">500 µM"],
  ["Nc1ccn([C@H]2CO[C@@H](CO)S2)c(=O)n1", ">500 µM"]
]}

Suppose we examine the molecule Nc1nc(=O)n([C@H]2CO[C@@H](CO)S2)cc1F ; what CCID50 CEM value has been reported?
>500 µM
